Origin of values: patent US8530648B2

Molecular target: hOx1R (Homo sapiens (Human), UniProt O43613)
Sequence (O43613 whole entry): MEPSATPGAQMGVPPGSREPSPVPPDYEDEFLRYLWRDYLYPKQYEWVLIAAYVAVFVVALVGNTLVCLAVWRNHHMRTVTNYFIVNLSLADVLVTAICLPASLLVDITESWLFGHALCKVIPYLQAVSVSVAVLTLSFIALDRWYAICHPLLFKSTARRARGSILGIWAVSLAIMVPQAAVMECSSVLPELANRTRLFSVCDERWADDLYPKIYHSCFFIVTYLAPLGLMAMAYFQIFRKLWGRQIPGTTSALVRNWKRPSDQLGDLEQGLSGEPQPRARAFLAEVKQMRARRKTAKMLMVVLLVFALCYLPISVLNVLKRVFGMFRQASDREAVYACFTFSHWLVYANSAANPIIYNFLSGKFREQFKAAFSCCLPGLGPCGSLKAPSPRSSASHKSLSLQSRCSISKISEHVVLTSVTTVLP
Assay: Calcium accumulation in cells (FLIPR), hOx1R
Conditions: inhibition of orexin A induced calcium accumulation, Cheng and Prusoff correction
assay endpoint: Ki (µM)
Please give a number only; it is taken to be in µM.

Known value: hOx1R (Homo sapiens (Human), UniProt O43613) Ki of the compound O=C1N(Cc2c[nH]c3ccccc23)CCCC12CCN(c1ncnc3[nH]ccc13)CC2 equals 1.53

Form: item N#Cc1cccc(CN2CCCC3(CCN(c4cnc5ccccc5n4)CC3)C2=O)c1 ; test system hOx1R (Homo sapiens (Human), UniProt O43613); Ki: 3.06
